Assay: Tacrolimus whole blood concentration, trough and 12-h AUC after kidney transplantation (chemiluminescent microparticle immunoassay)
Type: in vivo, human
Conditions: human, whole blood, oral, 30 mg, day 7 post-transplantation; CYP3A5 non-expressers, diltiazem 30 mg every 12 h (n = 9); mean ± SD
Description: This prospective, randomized, double-blind, placebo-controlled study was carried out in four parallel groups of KTRs. […] […] Whole blood tacrolimus concentrations were determined within the same day of blood collection by using a chemiluminescent microparticle immunoassay method with […] system® i2000 (Abbott, Abbott Diagnostic, USA). […] For calculation of AUC/D and C0/D, values of AUC and C0 were dose-adjusted by dividing the observed values by the dose recorded on the day of blood collection. […]
REPORTED_METRIC: C0
Please report the result as a number followed by the unit.

Provide C0 value for the following compound: C=CC[C@@H]1/C=C(\C)C[C@H](C)C[C@H](OC)[C@H]2O[C@@](O)(C(=O)C(=O)N3CCCC[C@H]3C(=O)O[C@H](/C(C)=C/[C@@H]3CC[C@@H](O)[C@H](OC)C3)[C@H](C)[C@@H](O)CC1=O)[C@H](C)C[C@@H]2OC [Tacrolimus]
8.4 ng/mL

* * *

Test: Tacrolimus whole blood concentration, trough and 12-h AUC after kidney transplantation (chemiluminescent microparticle immunoassay)
Format: in vivo, human
Settings: human, whole blood, oral, day 7; all 40 KTRs; mean ± SD
Method: This prospective, randomized, double-blind, placebo-controlled study was carried out in four parallel groups of KTRs. […] […] Whole blood tacrolimus concentrations were determined within the same day of blood collection by using a chemiluminescent microparticle immunoassay method with […] system® i2000 (Abbott, Abbott Diagnostic, USA). […] For calculation of AUC/D and C0/D, values of AUC and C0 were dose-adjusted by dividing the observed values by the dose recorded on the day of blood collection. […]
REPORTED_METRIC: C0

Please give measured C0 of the following entry: C=CC[C@@H]1/C=C(\C)C[C@H](C)C[C@H](OC)[C@H]2O[C@@](O)(C(=O)C(=O)N3CCCC[C@H]3C(=O)O[C@H](/C(C)=C/[C@@H]3CC[C@@H](O)[C@H](OC)C3)[C@H](C)[C@@H](O)CC1=O)[C@H](C)C[C@@H]2OC [Tacrolimus]
8.4 ng/mL

* * *

test: Tacrolimus whole blood concentration, trough and 12-h AUC after kidney transplantation (chemiluminescent microparticle immunoassay); type: in vivo, human; settings: human, whole blood, oral, day 3 post-transplantation; CYP3A5 expressers, placebo (n = 12); median (IQR)
REPORTED_METRIC: C0 (ng/mL)
All answers are understood in ng/mL, so give the number only.

Find the measured C0 of C=CC[C@@H]1/C=C(\C)C[C@H](C)C[C@H](OC)[C@H]2O[C@@](O)(C(=O)C(=O)N3CCCC[C@H]3C(=O)O[C@H](/C(C)=C/[C@@H]3CC[C@@H](O)[C@H](OC)C3)[C@H](C)[C@@H](O)CC1=O)[C@H](C)C[C@@H]2OC and report it.
6.2

* * *

experiment: Tacrolimus whole blood concentration, trough and 12-h AUC after kidney transplantation (chemiluminescent microparticle immunoassay); format: in vivo, human; conditions: human, whole blood, oral, day 3 post-transplantation; CYP3A5 non-expressers, placebo (n = 8); median (IQR)
REPORTED_METRIC: C0 (ng/mL)
A number alone suffices; assume ng/mL.

Look up and report measured C0 for this entry: C=CC[C@@H]1/C=C(\C)C[C@H](C)C[C@H](OC)[C@H]2O[C@@](O)(C(=O)C(=O)N3CCCC[C@H]3C(=O)O[C@H](/C(C)=C/[C@@H]3CC[C@@H](O)[C@H](OC)C3)[C@H](C)[C@@H](O)CC1=O)[C@H](C)C[C@@H]2OC [Tacrolimus]
9.4
